Data origin, for the record: ChEMBL document CHEMBL1128460

Parameter: Emax. Scope: all listed entries.
Organism: Canis familiaris
method summary: Maximal contractile response obtained with the agonist (expressed as a percentage of the maximal contraction to phenylephrine in the dog saphenous vein)
Assay type: functional, Canis lupus familiaris

Recorded Emax, per entry:
CCOc1ccc(OCC)c2c1CCC1(CN=CN1)C2 (stereo not drawn) :: 68
CC1=NC2(CCc3ccccc3C2)CN1 (stereo not drawn) :: 23
Clc1cc(Cl)c2c(c1)CC1(CC2)CN=CN1 (stereo not drawn) :: 45
COc1cc2c(c(OC)c1)CCC1(CN=CN1)C2 (stereo not drawn) :: 44

Data request: Can you share its Emax? I mean this compound: CC(C)(C)c1ccc2c(c1)CC1(CC2)CN=CN1 (stereo not drawn)
Data returned: 35

Data request: Fill blank: measured Emax of the compound Fc1cc(F)c2c(c1)CC1(CC2)CN=CN1 (stereo not drawn) is ____.
Data returned: 35

Data request: // lookup Emax for COc1cccc2c1CC1(CC2)CN=CN1 (stereo not drawn)
Data returned: 100

Data request: Value lookup for Emax; key = COc1ccc2c(c1)CC1(CC2)CN=CN1 (stereo not drawn)
Data returned: 49

Data request: # lookup: Emax of COc1ccc2c(c1OC)CCC1(CN=CN1)C2 (stereo not drawn)
Data returned: 67

Data request: Quick one: Emax for COc1cccc2c1CCC1(CN=CN1)C2 (stereo not drawn) ?
Data returned: 101

Data request: # input compound: COc1ccc(SC)c2c1C[C@@H]1[C@@H](C2)OCCN1C ; wanted: its Emax
Data returned: 38

Data request: Can you share its Emax? I mean this compound: CCc1ccc2c(c1)CC1(CC2)CN=CN1 (stereo not drawn)
Data returned: 50

Data request: Given the entry CN1C=NCC12CCc1ccccc1C2 (stereo not drawn) , report its measured Emax.
Data returned: 0

---

assay target: Alpha-2B adrenergic receptor (Rattus norvegicus)
Sequence (P19328 whole entry): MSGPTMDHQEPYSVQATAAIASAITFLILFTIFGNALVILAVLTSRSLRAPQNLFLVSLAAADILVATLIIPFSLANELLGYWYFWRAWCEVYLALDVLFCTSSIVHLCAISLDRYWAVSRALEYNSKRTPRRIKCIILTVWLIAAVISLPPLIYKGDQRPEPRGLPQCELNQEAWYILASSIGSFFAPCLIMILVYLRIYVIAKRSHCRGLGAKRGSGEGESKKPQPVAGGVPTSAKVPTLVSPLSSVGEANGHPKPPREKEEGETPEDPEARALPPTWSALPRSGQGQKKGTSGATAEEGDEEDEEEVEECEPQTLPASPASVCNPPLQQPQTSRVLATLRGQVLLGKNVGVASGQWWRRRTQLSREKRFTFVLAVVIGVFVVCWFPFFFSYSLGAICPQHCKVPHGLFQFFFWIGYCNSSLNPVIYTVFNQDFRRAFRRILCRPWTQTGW
reported metric: Ki (µM)
Form entry: value (µM) — number only.

COc1cccc2c1CCC1(CNC=N1)C2 (stereo not drawn) :: 0.159

Data request: Which measured Ki belongs to FC(F)(F)c1ccc(Cl)c(NC2=NCCN2)c1 , tested on Alpha-2B adrenergic receptor (Rattus norvegicus)?
Data returned: 0.179

Data request: I'm curious: which Ki was measured for Clc1cc(Cl)c2c(c1)CC1(CC2)CN=CN1 (stereo not drawn) tested on Alpha-2B adrenergic receptor (Rattus norvegicus)?
Data returned: 0.095

---

method summary: Ratio of C20 obtained in the absence or presence of [C20 (1 mg of yohimbine.) / C20 (control)]
Type: functional
reported metric: Ratio

Past entries and their recorded results:
CC(C)(C)c1ccc2c(c1)CC1(CC2)CN=CN1 (configuration not stated) :: 1.6
COc1cc2c(cc1O)CCC1(CN=CN1)C2 (configuration not stated) :: 2.8
COc1cc(C)cc2c1CCC1(CN=CN1)C2 (configuration not stated) :: 1
CC1=NC2(CCc3ccccc3C2)CN1 (configuration not stated) :: 5.3
Oc1cccc2c1CC1(CC2)CN=CN1 (configuration not stated) :: 12
NC1=NC2(CCc3ccccc3C2)CN1 (configuration not stated) :: 26

Attention now turns to another entry.
Data request: Entry Fc1ccc2c(c1)CC1(CC2)CN=CN1 (configuration not stated) has what Ratio?
Data returned: 7.7

---

assay target: Adrenergic receptor alpha (Rattus norvegicus) (UniProt P15823+P23944+P43140+P22086+P19328+P22909)
method summary: Alpha adrenergic activity was evaluated as concentration (iv) which increases the arterial pressure by 20 mmHg in the pithed rat
Type: functional, organism-based
measurement setup: Artery
Assign class by C20: not lower than 8 µg/kg means Met; lower than 8 µg/kg means Not met.

CCc1ccc2c(c1)CC1(CC2)CN=CN1 (configuration not stated) :: Met
CC(C)Oc1ccc2c(c1)CCC1(CN=CN1)C2 (configuration not stated) :: Met
COc1cc2c(cc1O)CCC1(CN=CN1)C2 (configuration not stated) :: Not met
CC1=NCC2(CCc3ccccc3C2)N1C (configuration not stated) :: Met

Data request: # bool: C20 of Clc1cccc2c1CCC1(CN=CN1)C2 (configuration not stated) >= 8 µg/kg
Data returned: Not met

---

method summary: Ratio of C20 obtained in the absence or presence of [C20 (1 mg of yohimbine.) / C20 (control)]
Format: functional
reported metric: Ratio
Provide a numeric answer; units are not to be included.

Below, each entry is followed by its recorded Ratio result.
CC(C)c1ccc2c(c1)CC1(CC2)CN=CN1 (configuration not stated) :: 2.9
Cc1cc(C)c2c(c1)CC1(CC2)CN=CN1 (configuration not stated) :: 2.8
COc1ccc2c(c1)CC1(CC2)CN=CN1 (configuration not stated) :: 6.9
Clc1ccc2c(c1)CC1(CC2)CN=CN1 (configuration not stated) :: 5.8
Fc1cc(F)c2c(c1)CC1(CC2)CN=CN1 (configuration not stated) :: 5.7
Fc1cccc2c1CC1(CC2)CN=CN1 (configuration not stated) :: 1
CCOc1ccc(OC)c2c1CCC1(CN=CN1)C2 (configuration not stated) :: 4.8
FC(F)(F)c1ccc2c(c1)CC1(CC2)CN=CN1 (configuration not stated) :: 2.7
Clc1cc(Cl)c2c(c1)CC1(CC2)CN=CN1 (configuration not stated) :: 3.1
NC1=NC2(CCc3ccccc3C2)CO1 (configuration not stated) :: 19.6

Data request: Please look up its Ratio: COc1cccc2c1CC1(CC2)CN=CN1 (configuration not stated)
Data returned: 4.6

Data request: May I ask what Ratio has been recorded for Cc1ccc(C)c2c1CCC1(CN=CN1)C2 (configuration not stated) ?
Data returned: 4.8

Data request: Give the measured Ratio of Clc1cccc2c1CCC1(CN=CN1)C2 (configuration not stated) .
Data returned: 2.8

Data request: Please look up its Ratio: NC1=NC2(CCc3cccc(Cl)c3C2)CO1 (configuration not stated)
Data returned: 3

Data request: Fill in: Ratio of COc1cccc2c1CCC1(CN=CN1)C2 (configuration not stated) is ___
Data returned: 4.7

Data request: Could you share which Ratio value was measured for COc1ccc(SC)c2c1CC1(CC2)CN=CN1 (configuration not stated) ?
Data returned: 45

Data request: Need Ratio, item COc1ccc2c(c1)CCC1(CN=CN1)C2 (configuration not stated)
Data returned: 1.5

---

Species: Canis familiaris
method summary: Maximal contractile response obtained with the agonist (expressed as a percentage of the maximal contraction to phenylephrine in the dog saphenous vein)
Type: functional, Canis lupus familiaris
reported metric: Emax

Illustrative cases are given below, each with its answer.
Clc1cc(Cl)c2c(c1)CCC1(CN=CN1)C2 (configuration not stated) :: 100
Cc1ccc2c(c1)CCC1(CN=CN1)C2 (configuration not stated) :: 44
COc1cc2c(cc1O)CCC1(CN=CN1)C2 (configuration not stated) :: 97

Data request: Record request: Emax value, item C1=NCC2(CCc3cc4c(cc3C2)CCC4)N1 (configuration not stated)
Data returned: 17

Data request: Fill in the blank: the reported Emax of Cc1ccc2c(c1)CC1(CC2)CN=CN1 (configuration not stated) is ____.
Data returned: 64

Data request: Entry under review: COc1cc(C)cc2c1CCC1(CN=CN1)C2 (configuration not stated) . Reported Emax?
Data returned: 81

Data request: Which measured Emax value corresponds to Fc1cccc2c1CC1(CC2)CN=CN1 (configuration not stated) ?
Data returned: 99

---

In this section we review reported Ki values for a set of molecules.
assay target: Adrenergic receptor alpha-1 (Rattus norvegicus, UniProt P15823+P23944+P43140)
method summary: Displacement of [3H]prazosin from rat cortex Alpha-1 adrenergic receptor
Express the result in µM but write the number alone.

COc1ccc(OC)c2c1CCC1(CN=CN1)C2 (stereo not drawn) :: 2
COc1ccc2c(c1)CC1(CC2)CN=CN1 (stereo not drawn) :: 16
COc1ccc(SC)c2c1CC1(CC2)CN=CN1 (stereo not drawn) :: 0.6

Data request: // returns reported Ki for input COc1ccc2c(c1)CCC1(CN=CN1)C2 (stereo not drawn)
Data returned: 29.4

Data request: Please look up its Ki: FC(F)(F)c1ccc(Cl)c(NC2=NCCN2)c1
Data returned: 65.8

Data request: What measured Ki goes with Cc1ccc2c(c1)CC1(CC2)CN=CN1 (stereo not drawn) ?
Data returned: 1

Data request: Any idea what its Ki is? The molecule is C1=NCC2(CCc3ccccc3C2)N1 (stereo not drawn)
Data returned: 14.4

Data request: Please report the recorded Ki for NC1=NC2(CCc3cccc(Cl)c3C2)CO1 (stereo not drawn) .
Data returned: 0.8

Data request: Fill in the blank: the reported Ki of Fc1cccc2c1CC1(CC2)CN=CN1 (stereo not drawn) is ____.
Data returned: 2.5

---

assay target: Adrenergic receptor alpha (Rattus norvegicus) (UniProt P15823+P23944+P43140+P22086+P19328+P22909)
method summary: Alpha adrenergic activity was evaluated as maximal pressure response caused by agonist, expressed in mmHg (the maximum obtained with phenylephrine is 150 mmHg).
Assay type: functional
Max reference
Provide the reading as a plain figure in mmHg.

A selection of reference data follows.
CN1C=NCC12CCc1ccccc1C2 (stereo not drawn) :: 73
CC(C)Oc1ccc2c(c1)CCC1(CN=CN1)C2 (stereo not drawn) :: 62
Clc1cc2c(cc1Cl)CC1(CC2)CN=CN1 (stereo not drawn) :: 101
CC(C)(C)c1ccc2c(c1)CC1(CC2)CN=CN1 (stereo not drawn) :: 45
COc1ccc(SC)c2c1C[C@@H]1[C@@H](C2)OCCN1C :: 123
COc1ccc(OC)c2c1CCC1(CN=CN1)C2 (stereo not drawn) :: 128

Data request: GET /values?readout=Max&item= Fc1cccc2c1CC1(CC2)CN=CN1 (stereo not drawn)
Data returned: 131

Data request: Would you mind telling me what Max value was observed for Cc1ccc(C)c2c1CCC1(CN=CN1)C2 (stereo not drawn) ?
Data returned: 140

Data request: Quick one: Max for Clc1ccc2c(c1)CC1(CC2)CN=CN1 (stereo not drawn) ?
Data returned: 116

Data request: Tell me the measured Max of COc1ccc2c(c1)CCC1(CN=CN1)C2 (stereo not drawn) , please.
Data returned: 105

Data request: What does the record list as Max for COc1cc2c(c(OC)c1)CCC1(CN=CN1)C2 (stereo not drawn) ?
Data returned: 109

Data request: Looking for the measured Max of FC(F)(F)c1ccc(Cl)c(NC2=NCCN2)c1 , can you help?
Data returned: 73

Data request: Which measured Max value corresponds to COc1cccc2c1CCC1(CN=CN1)C2 (stereo not drawn) ?
Data returned: 139
